Origin of the recorded values: patent US11040966B2

# measurement-description: Measurement of brain and systemic concentration after oral administration
# Type: in vivo
# assay-context: rat, brain; male wistar rats; 3 h after oral administration (100 mg/kg), n=3; read-out: concentration of the compound in brain ([B])
Consider the following compounds and their measured concentration at 3 h readings.
Your answer should be a plain number; it is taken to be in ng/g.

Cc1ccc(-n2nccn2)c(C(=O)N2CCC[C@@]2(C)c2nc3cc(Br)cc(C)c3[nH]2)c1 | 3880
COc1ccc(-n2nccn2)c(C(=O)N2CCC[C@@]2(C)c2nc3c(C)c(Cl)ccc3[nH]2)c1 | 1810

Now consider the entry below.
Exercise: Which concentration at 3 h is listed for Cc1ccc(-c2ncccn2)c(C(=O)N2CCC[C@@]2(C)c2nc3cc(Br)cc(C)c3[nH]2)c1 ?
Key: 5880
